Just for reference, patent US12522587B2 is where these values come from.

Test system: SU-DHL-10
assay protocol: Growth inhibition of additional cancer cell lines
Format: cell-based
protocol conditions: Homo sapiens, SU-DHL10; SU-DHL-10, Hematopoietic-large B-cell lymphoma; 50% inhibition of growth
Excerpt: We tested the ability of compound I-1 to inhibit the growth of 11 additional cell lines, derived from a variety of different types of human cancer.

molecule: CCC(=O)N1CCc2cc(-c3ccc(C(=O)NCc4cccnc4)cc3)ccc21
output unit: nM
IC50: 2610

====

Measured pIC50 values are reported for all entries that follow.
System: AGS cells
assay protocol: Cell viability in AGS cells (CellTiter Glo2, 8-point dose response, 4 days)
Type: cell-based, human
protocol conditions: Homo sapiens, 96 h
pIC50: −log10 of the molar value. Structures can show the parent of a compound that is named as a salt.

compound: CCC(=O)N1CCc2cc(-c3ccc(C(=O)NCC4=CC[NH2+]CC4)cc3)ccc21 [Mono- formate of I-69]
value relation sign: <
pIC50: 4.52

compound: CCC(=O)N1CCc2cc(-c3ccc(C(=O)N(C)Cc4cccnc4)cc3)ccc21
value relation sign: =
pIC50: 4.53
